- Protocol Text: Bioavailability of orally administered FTS formulated in 0.5% aqueous carboxymethylcellulose (plasma FTS by LC/MS)
- Assay type: in vivo, CD-1 mice
- Experimental Setup: CD-1, mouse, oral, 40 mg/kg, mice, gavage, 0.5% aqueous carboxymethylcellulose suspension, dose 40 mg/ml (10 ml/kg), 2 hours
Property Name: concentration at 2 h (ng/mL)
# unit: ng/mL | format: bare number

Q: Which value of concentration at 2 h has been reported for CC(C)=CCC/C(C)=C/CC/C(C)=C/CSc1ccccc1C(=O)O in the records?
A: 1590

---

- Protocol Text: Compatibility of FTS with pharmaceutical excipients (accelerated stability, HPLC assay)
- Assay type: physicochemical
- Experimental Setup: 1:1 w/w mixture with FTS, 40° C./75% RH, loosely capped vials, 2 weeks
Property Name: HPLC assay, 2 weeks (%)
# unit: % | format: bare number

Q: Which value of HPLC assay, 2 weeks has been reported for CC(C)=CCC/C(C)=C/CC/C(C)=C/CSc1ccccc1C(=O)O in the records?
A: 97.1

---

- Protocol Text: Bioavailability of orally administered FTS formulated in corn oil (plasma FTS by LC/MS)
- Type: in vivo, CD-1 mice
- Experimental Setup: CD-1, mouse, oral, 40 mg/kg, mice, gavage, corn oil suspension, dose 40 mg/ml (10 ml/kg), 2 hours
- Experimental: FTS (40 mg) was dispersed in corn oil (10 ml). Aliquots of the resulting suspension were administered by gavage to CD-1 mice (eighteen) at a dose of […] (at a volume of 10 ml/kg of FTS suspension calculated for actual animal weight). Blood samples were collected in lithium heparin tubes via the retro-orbital plexus while under CO2/O2 anesthesia at 1, 2, 4, 8, 12 and 24 hours (3 animals at each time point) after dosing. […]
Property Name: concentration at 2 h (ng/mL)
# unit: ng/mL | format: bare number

Q: Which value of concentration at 2 h has been reported for CC(C)=CCC/C(C)=C/CC/C(C)=C/CSc1ccccc1C(=O)O in the records?
A: 1330

---

- Protocol Text: Bioavailability of orally administered FTS formulated in 0.5% aqueous carboxymethylcellulose (plasma FTS by LC/MS)
- Assay type: in vivo, CD-1 mice
- Experimental Setup: CD-1, mouse, oral, 40 mg/kg, mice, gavage, 0.5% aqueous carboxymethylcellulose suspension, dose 40 mg/ml (10 ml/kg), 1 hour
Property Name: concentration at 1 h (ng/mL)
# unit: ng/mL | format: bare number

Q: Which value of concentration at 1 h has been reported for CC(C)=CCC/C(C)=C/CC/C(C)=C/CSc1ccccc1C(=O)O [FTS, farnesyl-thiosalicylic acid] in the records?
A: 3380

---

- Protocol Text: Bioavailability of orally administered FTS formulated in corn oil (plasma FTS by LC/MS)
- Assay type: in vivo, CD-1 mice
- Experimental Setup: CD-1, mouse, oral, 40 mg/kg, mice, gavage, corn oil suspension, dose 40 mg/ml (10 ml/kg), 24 hours
Property Name: concentration at 24 h

Q: Which value of concentration at 24 h has been reported for CC(C)=CCC/C(C)=C/CC/C(C)=C/CSc1ccccc1C(=O)O in the records?
A: < 3 ng/mL

---

- Protocol Text: Bioavailability of orally administered FTS to rats (plasma FTS by LC/MS)
- Assay type: in vivo, Crl:CD(SD) (IGS)BR rats
- Experimental Setup: Crl:CD(SD) (IGS)BR, rat, plasma, oral 200 mg/kg in corn oil (95%) and ethanol (5%), 8 hours
Property Name: concentration at 8 h
Please state the number and follow it with the unit.

Q: Which value of concentration at 8 h has been reported for CC(C)=CCC/C(C)=C/CC/C(C)=C/CSc1ccccc1C(=O)O in the records?
A: 2220 ng/mL

Hello, the source for this data is patent US8088756B2, in case you need it.
